Sourced from patent US9321781B2

The following compounds are listed with their measured IC50 at 4 days values.
experiment: MTT cytotoxicity assay, KB3-1 parent cell line; format: cell-based; details: human, KB3-1 cells (parent cell line), KB3-1 parent cells, continuous exposure four days
Report the value in µM with no unit label.

Observe how each entry below is paired with its result.
[
  {
    "Structure": "COc1cc2c(cc1OC(=O)C(C)(C)C)c(=O)n(CCN(C)C)c1c3cc4c(cc3ncc21)OCO4",
    "IC50 at 4 days [µM]": 0.002
  },
  {
    "Structure": "COc1cc2c(cc1OC(=O)CCC1CCCC1)c(=O)n(CCN(C)C)c1c3cc4c(cc3ncc21)OCO4",
    "IC50 at 4 days [µM]": 0.003
  }
]

INPUT: Bench note: what IC50 at 4 days did CCOC(=O)Oc1cc2c(=O)n(CCN(C)C)c3c4cc5c(cc4ncc3c2cc1OC)OCO5 show?
OUTPUT: 0.001
